Catalogue of variants with associated normalized RNA/DNA level with ligand (log10)
B1: library; a variant is named by its letters at N, in order (parent)
chain: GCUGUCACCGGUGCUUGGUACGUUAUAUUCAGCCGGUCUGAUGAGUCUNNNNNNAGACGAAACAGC

Variants of: B1
assay.text: normalized RNA/DNA level with ligand (relative to sTRSVctl = 100) (log10 (% of sTRSVctl)); HEK293T overexpressing SLC46A1; ligand concentration (+) RNA-Seq: 6 mM; higher = less ribozyme self-cleavage, higher mRNA level
test.settings: with (6R,S)-folinic acid; ligand present: yes
Reply briefly: the number, and no unit.

Worked cases, answers included:
GCUGUCACCGGUGCUUGGUACGUUAUAUUCAGCCGGUCUGAUGAGUCUGCCGGUAGACGAAACAGC [GCCGGU]	2.03
GCUGUCACCGGUGCUUGGUACGUUAUAUUCAGCCGGUCUGAUGAGUCUGCUCCAAGACGAAACAGC [GCUCCA]	2.03
GCUGUCACCGGUGCUUGGUACGUUAUAUUCAGCCGGUCUGAUGAGUCUCGCAGAAGACGAAACAGC [CGCAGA]	2.05
GCUGUCACCGGUGCUUGGUACGUUAUAUUCAGCCGGUCUGAUGAGUCUCGUUGUAGACGAAACAGC [CGUUGU]	2
GCUGUCACCGGUGCUUGGUACGUUAUAUUCAGCCGGUCUGAUGAGUCUUAUCCCAGACGAAACAGC [UAUCCC]	2.01

Q: Record request: normalized RNA/DNA level with ligand (log10) value, item GCUGUCACCGGUGCUUGGUACGUUAUAUUCAGCCGGUCUGAUGAGUCUGGGGAGAGACGAAACAGC [GGGGAG]
Ans: 2.04

Q: Consider the variant GCUGUCACCGGUGCUUGGUACGUUAUAUUCAGCCGGUCUGAUGAGUCUAAAUAGAGACGAAACAGC [AAAUAG] and give its measured normalized RNA/DNA level with ligand (log10).
Ans: 1.98

Q: Quick check: normalized RNA/DNA level with ligand (log10) of GCUGUCACCGGUGCUUGGUACGUUAUAUUCAGCCGGUCUGAUGAGUCUUAUCCAAGACGAAACAGC [UAUCCA] ?
Ans: 2

Q: I'd like to know its normalized RNA/DNA level with ligand (log10). The variant in question is GCUGUCACCGGUGCUUGGUACGUUAUAUUCAGCCGGUCUGAUGAGUCUGUCUUUAGACGAAACAGC [GUCUUU]
Ans: 2.04

Q: Param item = GCUGUCACCGGUGCUUGGUACGUUAUAUUCAGCCGGUCUGAUGAGUCUCAAGGUAGACGAAACAGC [CAAGGU] ; retrieve measured normalized RNA/DNA level with ligand (log10).
Ans: 1.97

Q: Please look up its normalized RNA/DNA level with ligand (log10): GCUGUCACCGGUGCUUGGUACGUUAUAUUCAGCCGGUCUGAUGAGUCUCCACAUAGACGAAACAGC [CCACAU]
Ans: 1.98
